experiment: Rat non-crossover PK study; type: in vivo; details: male, SD, blood, po; rat, 1 mg/kg p.o.
Endpoint name: bioavailability

Enquiry: Given the entry C[C@@]1(O)[C@@H]([C@H](O)c2ccc(Cl)c(Cl)c2)O[C@@H](n2ccc3c(N)ncnc32)[C@@H]1O , report its measured bioavailability.
Return: > 100%

---

biological target: PRMT5/MEP50 complex (Homo sapiens (Human), UniProt O14744); experiment: PRMT5 biochemical assay (3H-SAM filter plate, histone H2A substrate); conditions: PRMT5/MEP50 5 nM, histone H2A 5 μM, SAM 1 μM; read-out: PRMT5 IC50
Sequence (O14744 whole entry): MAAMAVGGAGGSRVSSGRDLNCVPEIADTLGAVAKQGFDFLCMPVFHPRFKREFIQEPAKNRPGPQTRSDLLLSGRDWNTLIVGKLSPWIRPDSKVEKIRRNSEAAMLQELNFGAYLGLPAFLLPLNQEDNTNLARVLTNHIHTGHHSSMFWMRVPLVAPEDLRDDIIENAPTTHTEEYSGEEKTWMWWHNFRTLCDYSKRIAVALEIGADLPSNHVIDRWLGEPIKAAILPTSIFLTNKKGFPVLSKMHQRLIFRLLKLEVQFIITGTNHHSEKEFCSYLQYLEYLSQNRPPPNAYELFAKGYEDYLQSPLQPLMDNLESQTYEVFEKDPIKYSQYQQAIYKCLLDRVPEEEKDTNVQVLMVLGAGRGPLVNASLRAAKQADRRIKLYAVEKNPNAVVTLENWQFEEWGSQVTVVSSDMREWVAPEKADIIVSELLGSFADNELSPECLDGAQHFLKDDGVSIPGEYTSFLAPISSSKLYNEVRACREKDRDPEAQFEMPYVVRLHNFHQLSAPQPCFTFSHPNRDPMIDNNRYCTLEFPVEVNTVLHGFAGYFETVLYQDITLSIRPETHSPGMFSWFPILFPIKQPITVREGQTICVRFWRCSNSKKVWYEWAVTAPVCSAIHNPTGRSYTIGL
Sequence (Q9BQA1 whole entry partner): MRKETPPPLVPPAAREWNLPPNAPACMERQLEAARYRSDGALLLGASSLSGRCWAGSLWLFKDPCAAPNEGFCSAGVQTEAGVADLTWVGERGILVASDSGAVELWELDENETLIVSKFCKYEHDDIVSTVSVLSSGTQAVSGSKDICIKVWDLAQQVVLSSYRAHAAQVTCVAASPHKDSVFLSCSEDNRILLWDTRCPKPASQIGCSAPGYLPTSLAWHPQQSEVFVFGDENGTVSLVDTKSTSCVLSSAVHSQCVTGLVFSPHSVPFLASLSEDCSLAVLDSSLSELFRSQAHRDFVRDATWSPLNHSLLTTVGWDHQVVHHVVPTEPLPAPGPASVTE
Listed below: pIC50 values for each entry.
# pIC50: negative log10 of molar concentration; output just the value

As a guide, the following entries are already answered.
>>> print(df.to_string())
                              smiles_string                     target_or_test_system  endpoint_name  result
0  C[C@@]1(O)[C@@H](C(=O)Nc2cccc(CN)c2)O[C@@H](n2ccc3c(N)ncnc32)[C@@H]1O  PRMT5/MEP50 complex (Homo sapiens (Human), UniProt O14744)          pIC50    6.08
1  Cc1cc([C@@H](O)[C@H]2O[C@@H](n3ccc4c(N)ncnc43)[C@H](O)[C@]2(C)O)ccc1Cl  PRMT5/MEP50 complex (Homo sapiens (Human), UniProt O14744)          pIC50    7.17
2  C[C@@]1(O)[C@@H](Cc2ccc(Cl)c(Cl)c2)O[C@@H](n2ccc3cncnc32)[C@@H]1O  PRMT5/MEP50 complex (Homo sapiens (Human), UniProt O14744)          pIC50    6.39
3  Cc1ncnc2c1ccn2[C@@H]1O[C@H](Cc2ccc(Cl)cc2CO)[C@@](C)(O)[C@H]1O  PRMT5/MEP50 complex (Homo sapiens (Human), UniProt O14744)          pIC50    5.79
4  CO/N=c1\[nH]cnc2c1ccn2[C@@H]1O[C@H](COc2ccc3ccc(NOC)nc3c2)[C@@](C)(O)[C@H]1O  PRMT5/MEP50 complex (Homo sapiens (Human), UniProt O14744)          pIC50    4.94
5  CSC[C@H]1O[C@@H](n2ccc3c(N)ncnc32)[C@H](O)[C@]1(C)O  PRMT5/MEP50 complex (Homo sapiens (Human), UniProt O14744)          pIC50    6.05

Now turn to the next compound.
Enquiry: Given the entry COC[C@H]1O[C@@H](n2ccc3c(N)ncnc32)[C@H](O)[C@]1(C)O , report its measured pIC50.
Return: 5.84

---

target: PRMT5/MEP50 complex (Homo sapiens (Human), UniProt O14744); experiment: PRMT5 biochemical assay (3H-SAM filter plate, histone H2A substrate); conditions: PRMT5/MEP50 5 nM, histone H2A 5 μM, SAM 1 μM; read-out: PRMT5 IC50
Endpoint name: IC50
Write your answer as a measured quantity: the number, then the unit.

As a guide, the following entries are already answered.
In [3]: df
Out[3]:
                                   molecule                     target_or_test_system  endpoint_name    result
0  CO/N=c1\[nH]cnc2c1ccn2[C@@H]1O[C@H]([C@H](O)c2ccc(Cl)cc2)[C@@](C)(O)[C@H]1O [Example 44]  PRMT5/MEP50 complex (Homo sapiens (Human), UniProt O14744)           IC50   3480 nM
1  C[C@@]1(O)[C@@H](COc2ccc3cc(Br)c(N)nc3c2)O[C@@H](n2ccc3c(N)ncnc32)[C@@H]1O [Example 12]  PRMT5/MEP50 complex (Homo sapiens (Human), UniProt O14744)           IC50    0.5 nM
2  CNc1ncnc2c1ccn2[C@@H]1O[C@H](CSC)[C@@](C)(O)[C@H]1O [Example 40]  PRMT5/MEP50 complex (Homo sapiens (Human), UniProt O14744)           IC50  14100 nM
3  C=C[C@@]1(O)[C@@H](COc2ccc3ccc(N)nc3c2)O[C@@H](n2ccc3c(N)ncnc32)[C@@H]1O [Example 4]  PRMT5/MEP50 complex (Homo sapiens (Human), UniProt O14744)           IC50    8.7 nM

Enquiry: Given the entry Cc1ncnc2c1ccn2[C@@H]1O[C@H]([C@H](O)c2ccc(OC(F)(F)F)cc2)[C@@](C)(O)[C@H]1O [Example 60] , report its measured IC50.
Return: 368 nM

Enquiry: Given the entry C[C@@]1(O)[C@@H]([C@H](O)c2ccc(F)c(C(F)(F)F)c2)O[C@@H](n2ccc3c(N)ncnc32)[C@@H]1O [Example 63] , report its measured IC50.
Return: 3 nM

Enquiry: Given the entry C[C@@]1(O)[C@@H](COc2cccc(NC(N)=O)c2)O[C@@H](n2ccc3c(N)ncnc32)[C@@H]1O [Example 21] , report its measured IC50.
Return: 7840 nM
